- study target: Mitogen-activated protein kinase kinase kinase 4 (Homo sapiens, UniProt Q9Y6R4)
- Sequence (Q9Y6R4 whole entry, the tested form may be a part): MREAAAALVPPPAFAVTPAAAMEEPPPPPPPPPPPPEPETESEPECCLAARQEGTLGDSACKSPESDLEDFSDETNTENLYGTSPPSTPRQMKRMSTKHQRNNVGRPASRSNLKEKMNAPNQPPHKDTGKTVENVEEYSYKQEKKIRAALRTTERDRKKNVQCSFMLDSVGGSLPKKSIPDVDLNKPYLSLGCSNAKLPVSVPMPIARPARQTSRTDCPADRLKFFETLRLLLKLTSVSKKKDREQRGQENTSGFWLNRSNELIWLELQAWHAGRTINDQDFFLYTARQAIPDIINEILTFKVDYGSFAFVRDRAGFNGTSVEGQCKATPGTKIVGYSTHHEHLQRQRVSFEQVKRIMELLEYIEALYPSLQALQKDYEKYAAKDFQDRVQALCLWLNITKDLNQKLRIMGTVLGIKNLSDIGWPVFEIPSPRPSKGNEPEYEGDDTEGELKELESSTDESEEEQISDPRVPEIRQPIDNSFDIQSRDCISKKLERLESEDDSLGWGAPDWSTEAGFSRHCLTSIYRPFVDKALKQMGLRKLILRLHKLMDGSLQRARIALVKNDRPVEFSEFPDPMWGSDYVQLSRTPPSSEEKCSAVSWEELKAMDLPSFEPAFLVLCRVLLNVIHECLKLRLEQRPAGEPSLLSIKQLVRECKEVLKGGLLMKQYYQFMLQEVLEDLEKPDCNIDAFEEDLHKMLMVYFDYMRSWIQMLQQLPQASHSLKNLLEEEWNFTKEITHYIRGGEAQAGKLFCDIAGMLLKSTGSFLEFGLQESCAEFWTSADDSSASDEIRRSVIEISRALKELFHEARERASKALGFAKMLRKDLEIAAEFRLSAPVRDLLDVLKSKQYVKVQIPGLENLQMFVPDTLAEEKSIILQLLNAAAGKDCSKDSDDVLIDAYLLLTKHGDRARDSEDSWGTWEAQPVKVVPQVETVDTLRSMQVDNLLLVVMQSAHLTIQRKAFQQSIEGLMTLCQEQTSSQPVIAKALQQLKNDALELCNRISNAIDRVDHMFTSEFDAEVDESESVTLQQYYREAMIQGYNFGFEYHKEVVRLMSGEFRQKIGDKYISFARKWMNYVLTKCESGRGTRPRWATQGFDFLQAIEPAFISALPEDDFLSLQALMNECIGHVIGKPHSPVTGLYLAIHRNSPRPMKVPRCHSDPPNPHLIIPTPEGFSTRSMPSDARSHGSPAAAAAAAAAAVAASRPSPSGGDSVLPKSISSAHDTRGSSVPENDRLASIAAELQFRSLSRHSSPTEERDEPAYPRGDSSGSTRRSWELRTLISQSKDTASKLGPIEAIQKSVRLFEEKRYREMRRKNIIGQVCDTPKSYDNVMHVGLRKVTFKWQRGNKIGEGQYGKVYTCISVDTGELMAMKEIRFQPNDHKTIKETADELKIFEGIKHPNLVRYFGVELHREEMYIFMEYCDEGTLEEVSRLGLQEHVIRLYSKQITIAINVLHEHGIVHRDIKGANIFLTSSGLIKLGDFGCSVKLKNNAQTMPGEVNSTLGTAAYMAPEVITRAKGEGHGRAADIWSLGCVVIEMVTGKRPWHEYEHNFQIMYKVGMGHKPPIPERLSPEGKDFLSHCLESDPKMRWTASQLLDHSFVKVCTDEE
- assay name: Binding affinity to human MAP3K4 (G1319 to E1608 residues) expressed in bacterial expression system by KINOMEscan assay
measurement name: Kd

Item CC(C)CN(C(=O)c1cccnc1)c1c2ccccc2c(=O)n2c1[nH]c1ccccc12 : provide Kd
≥ 5 µM

* * *

- study target: Fibroblast growth factor receptor 2 (Homo sapiens)
- Sequence (P21802 whole entry): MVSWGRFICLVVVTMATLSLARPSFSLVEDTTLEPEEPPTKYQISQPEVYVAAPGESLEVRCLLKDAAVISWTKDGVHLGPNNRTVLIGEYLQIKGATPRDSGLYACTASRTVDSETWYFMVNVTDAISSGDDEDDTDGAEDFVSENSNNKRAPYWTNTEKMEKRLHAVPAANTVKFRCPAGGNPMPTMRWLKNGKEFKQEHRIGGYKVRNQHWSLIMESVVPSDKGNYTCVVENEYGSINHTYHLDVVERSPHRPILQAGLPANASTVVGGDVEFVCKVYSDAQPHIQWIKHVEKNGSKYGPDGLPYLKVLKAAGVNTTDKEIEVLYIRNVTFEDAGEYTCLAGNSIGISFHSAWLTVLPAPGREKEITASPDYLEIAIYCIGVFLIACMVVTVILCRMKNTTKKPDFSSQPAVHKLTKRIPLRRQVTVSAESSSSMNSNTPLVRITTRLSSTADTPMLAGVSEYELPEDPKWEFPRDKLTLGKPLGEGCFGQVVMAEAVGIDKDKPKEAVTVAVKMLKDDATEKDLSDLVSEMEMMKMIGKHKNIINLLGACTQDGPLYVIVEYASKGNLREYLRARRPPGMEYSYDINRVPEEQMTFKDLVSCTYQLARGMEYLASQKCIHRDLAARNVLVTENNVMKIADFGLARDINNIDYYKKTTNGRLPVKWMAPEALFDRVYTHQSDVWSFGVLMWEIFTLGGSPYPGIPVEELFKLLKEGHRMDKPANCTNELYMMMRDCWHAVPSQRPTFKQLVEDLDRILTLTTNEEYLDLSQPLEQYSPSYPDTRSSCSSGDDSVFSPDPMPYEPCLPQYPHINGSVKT
measurement name: Kd

Give a short answer stating reported Kd for CC(C)CN(C(=O)c1cccnc1)c1c2ccccc2c(=O)n2c1[nH]c1ccccc12 .
≥ 5 µM

* * *

- study target: RAC-alpha serine/threonine-protein kinase (Homo sapiens)
- Sequence (P31749 whole entry): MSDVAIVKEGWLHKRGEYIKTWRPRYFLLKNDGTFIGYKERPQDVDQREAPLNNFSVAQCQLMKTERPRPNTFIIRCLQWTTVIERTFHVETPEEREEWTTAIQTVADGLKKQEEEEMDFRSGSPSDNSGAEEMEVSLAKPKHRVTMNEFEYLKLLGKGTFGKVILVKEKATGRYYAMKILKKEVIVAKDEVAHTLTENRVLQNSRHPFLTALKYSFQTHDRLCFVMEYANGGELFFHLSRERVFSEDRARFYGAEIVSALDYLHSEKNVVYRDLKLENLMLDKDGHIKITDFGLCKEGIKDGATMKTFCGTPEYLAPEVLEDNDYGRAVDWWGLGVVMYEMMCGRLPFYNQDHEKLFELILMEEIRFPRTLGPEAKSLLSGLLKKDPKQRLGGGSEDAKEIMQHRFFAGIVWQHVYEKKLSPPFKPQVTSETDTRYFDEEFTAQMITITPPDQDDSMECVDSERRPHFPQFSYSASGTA
pKd: −log10 of the molar value.
measurement name: pKd

Quote pKd with test system RAC-alpha serine/threonine-protein kinase (Homo sapiens) for CC(C)CN(C(=O)c1cccnc1)c1c2ccccc2c(=O)n2c1[nH]c1ccccc12
≤ 5.30
